Provenance of the data: patent US20220088146A1

- assay target: human melanocortin-1 receptor (human, UniProt Q01726 1-317)
- Sequence (Q01726 whole entry): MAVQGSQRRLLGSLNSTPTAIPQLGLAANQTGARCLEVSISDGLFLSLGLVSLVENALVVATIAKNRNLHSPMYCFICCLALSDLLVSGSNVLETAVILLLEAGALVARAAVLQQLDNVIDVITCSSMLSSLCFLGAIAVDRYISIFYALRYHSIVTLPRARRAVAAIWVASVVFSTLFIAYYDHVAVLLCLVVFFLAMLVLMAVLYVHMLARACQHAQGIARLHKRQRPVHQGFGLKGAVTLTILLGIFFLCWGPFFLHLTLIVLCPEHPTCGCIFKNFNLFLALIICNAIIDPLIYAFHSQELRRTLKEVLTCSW
- test name: cell-based or functional assay
Numbered stars: 1 amine (or outer) side, 2 acyl side, 3 side chain; on linkers, the order of the positions; unused ones are H or OH. Bridge positions count the residues as written; N and C are the ends. Square brackets hold non-standard residues; d marks the D form. * marks the point of attachment. Cyclohexanecarbonyl = O=C(C1CCCCC1)*; Hydrocinnamoyl = O=C(CCc1ccccc1)*; Suc = O=C(CCC(=O)[*:2])[*:1]; Heptanoyl = CCCCCCC(=O)*; Nle = CCCC[C@H](N)C(=O)O; Dab = NCC[C@H](N)C(=O)O; Hexanoyl = CCCCCC(=O)*; Butyryl = CCCC(=O)*
parameter: MC-1 Emax (average; cAMP HBL) (%)
Numbers only here, please. The scale is %.

Input Ac-[Nle]EH[dF]RKW-NH2 (lactam 2-6, also called 9.1) [Ac-Nle-cyclo(Glu-His-D-Phe-Arg-Lys)-Trp-NH2] , output reported MC-1 Emax (average; cAMP HBL).
97

Input Cyclohexanecarbonyl-EH[dF]R[Dab]W-NH2 (lactam 1-5, also called 9.20) [cyclo-hexanoyl-cyclo(Glu-His-D-Phe-Arg-Dab)-Trp-NH2] , output reported MC-1 Emax (average; cAMP HBL).
79

Input [Suc]HFR[Dab]W-NH2 (lactam N-5; SMILES N=C(N)NCCC[C@@H]1NC(=O)[C@H](Cc2ccccc2)NC(=O)[C@H](Cc2c[nH]cn2)NC(=O)CCC(=O)NCC[C@@H](C(=O)N[C@@H](Cc2c[nH]c3ccccc23)C(N)=O)NC1=O, also called 9.14) [cyclo(Suc-His-Phe-Arg-Dab)-Trp-NH2] , output reported MC-1 Emax (average; cAMP HBL).
80

Input Heptanoyl-EH[dF]R[Dab]W-NH2 (lactam 1-5, also called 9.18) [CH3-(CH2)5-C(═O)-cyclo(Glu-His-D-Phe-Arg-Dab)-Trp-NH2] , output reported MC-1 Emax (average; cAMP HBL).
87

Input Hexanoyl-EH[dF]R[Dab]W-NH2 (lactam 1-5, also called 9.17) [CH3-(CH2)4-C(═O)-cyclo(Glu-His-D-Phe-Arg-Dab)-Trp-NH2] , output reported MC-1 Emax (average; cAMP HBL).
90

Input Butyryl-EH[dF]R[Dab]W-NH2 (lactam 1-5, also called 9.15) [CH3-(CH2)2-C(═O)-cyclo(Glu-His-D-Phe-Arg-Dab)-Trp-NH2] , output reported MC-1 Emax (average; cAMP HBL).
91

Input Hydrocinnamoyl-EH[dF]R[Dab]W-NH2 (lactam 1-5, also called 9.24) [phenyl propanoyl-cyclo(Glu-His-D-Phe-Arg-Dab)-Trp-NH2] , output reported MC-1 Emax (average; cAMP HBL).
83
